The reported measurements were obtained from paper PMC4061985.

molecular target: HLA-DR0901 protein (Homo sapiens, UniProt P01903+P01911, A100R/A103E/D57H/D86V/F55Y/F60I/F76Y/I96F/K127E/L162R/M171V/P40D/Q125H/Q99R/R33Q/R42F/S133A/S66N/T210M/V115G/W38K/Y107V/Y59G/Y89S); test: Peptide binding competition assay, DR0901
Residues, ends and D or L forms follow the SMILES beside them.
measure: Kd (nM)
# number only, unit nM dropped from output

See these solved cases before continuing.
molecule	measure unit	measured value
CC[C@H](C)[C@H](NC(=O)[C@H](CCCCN)NC(=O)[C@H](CO)NC(=O)[C@H](CC(C)C)NC(=O)[C@H](CO)NC(=O)[C@H](Cc1ccc(O)cc1)NC(=O)[C@H](CC(N)=O)NC(=O)[C@H](Cc1ccccc1)NC(=O)[C@H](CC(N)=O)NC(=O)[C@@H](N)CC(C)C)C(=O)N[C@H](C(=O)N[C@H](C(=O)N[C@@H](CC(=O)O)C(=O)O)C(C)C)[C@@H](C)CC [LNFNYSLSKIIVD] (H-LNFNYSLSKIIVD-OH)	nM	31
CC[C@H](C)[C@H](NC(=O)[C@@H](NC(=O)[C@@H]1CCCN1C(=O)[C@H](CC(=O)O)NC(=O)[C@H](CC(C)C)NC(=O)[C@H](CO)NC(=O)[C@H](Cc1ccc(O)cc1)NC(=O)[C@H](CC(N)=O)NC(=O)[C@H](Cc1ccccc1)NC(=O)[C@H](CC(N)=O)NC(=O)[C@@H](N)CC(C)C)[C@@H](C)CC)C(=O)N[C@H](C(=O)N[C@@H](CC(=O)O)C(=O)O)C(C)C [LNFNYSLDPIIVD] (H-LNFNYSLDPIIVD-OH)	nM	36
CC[C@H](C)[C@H](NC(=O)[C@H](CCCCN)NC(=O)[C@H](CC(=O)O)NC(=O)[C@H](CC(C)C)NC(=O)[C@H](CO)NC(=O)[C@H](Cc1ccc(O)cc1)NC(=O)[C@H](CC(N)=O)NC(=O)[C@H](Cc1ccccc1)NC(=O)[C@H](CC(N)=O)NC(=O)[C@@H](N)CC(C)C)C(=O)N[C@@H](Cc1c[nH]c2ccccc12)C(=O)N[C@H](C(=O)N[C@@H](CC(=O)O)C(=O)O)C(C)C [LNFNYSLDKIWVD] (H-LNFNYSLDKIWVD-OH)	nM	530
CC[C@H](C)[C@H](NC(=O)[C@H](CO)NC(=O)[C@H](CC(=O)O)NC(=O)[C@H](CC(C)C)NC(=O)[C@H](CO)NC(=O)[C@H](Cc1ccc(O)cc1)NC(=O)[C@H](CC(N)=O)NC(=O)[C@H](Cc1ccccc1)NC(=O)[C@H](CC(N)=O)NC(=O)[C@@H](N)CC(C)C)C(=O)N[C@H](C(=O)N[C@H](C(=O)N[C@@H](CC(=O)O)C(=O)O)C(C)C)[C@@H](C)CC [LNFNYSLDSIIVD] (H-LNFNYSLDSIIVD-OH)	nM	110

Continue with the molecule presented below.
Note down Kd recorded for CC[C@H](C)[C@H](NC(=O)[C@H](CCCCN)NC(=O)[C@H](CC(=O)O)NC(=O)[C@H](CC(C)C)NC(=O)[C@H](CCC(=O)O)NC(=O)[C@H](Cc1ccc(O)cc1)NC(=O)[C@H](CC(N)=O)NC(=O)[C@H](Cc1ccccc1)NC(=O)[C@H](CC(N)=O)NC(=O)[C@@H](N)CC(C)C)C(=O)N[C@H](C(=O)N[C@H](C(=O)N[C@@H](CC(=O)O)C(=O)O)C(C)C)[C@@H](C)CC [LNFNYELDKIIVD] (H-LNFNYELDKIIVD-OH)
116000
